Recorded values, source patent US20260055186A1.

molecular target: T1, human CD8 on human T cells (human, UniProt P01732 22-235); experiment: flow cytometry on human CD8+ T cells, titration
T1 construct: whole, on cells; the antibodies were raised against human CD8 alpha; also called CD8 on human CD8+ T cells; hCD8
T1 sequence (P01732 22-235): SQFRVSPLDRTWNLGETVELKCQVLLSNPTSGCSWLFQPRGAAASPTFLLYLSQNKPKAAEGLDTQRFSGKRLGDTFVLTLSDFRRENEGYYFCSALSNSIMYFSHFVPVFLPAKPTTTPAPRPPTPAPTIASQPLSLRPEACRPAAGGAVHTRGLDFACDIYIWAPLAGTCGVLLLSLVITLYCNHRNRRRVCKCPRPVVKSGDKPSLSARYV
# Maximum CD8+ T cell Binding (MFI) per record follows
State the answer as a number, implicitly in MFI.

humanized 02A01-VH4-VK4 (antibody, human IgG1, V domains shown, human IgG1 format; also called 02-VH4-VK4) VH: EVQLVQSGAEVKKPGATVKISCKASGYTFTDFTMHWVQQAPGKGLEWIGLVNPNNGGNIYAEKFQGRATLTVDTSTSTAYMELSSLRSEDTAVYYCGRVPLYTSHGMDYWGQGTLVTVSS VL: EIVLTQSPATLSVSPGERATISCRASESVDSYDINSMHWYQQKPGQAPRLLIYDASNRATGIPARFSGSGSRTDFTLTISSVEPEDFATYYCQQSNEDPLTFGQGTKLEIK ... 1640

Which Maximum CD8+ T cell Binding (MFI) value is on record for humanized 02A01-VH4-VK2 (antibody, human IgG1, V domains shown, human IgG1 format; also called 02-VH4/VK2) VH: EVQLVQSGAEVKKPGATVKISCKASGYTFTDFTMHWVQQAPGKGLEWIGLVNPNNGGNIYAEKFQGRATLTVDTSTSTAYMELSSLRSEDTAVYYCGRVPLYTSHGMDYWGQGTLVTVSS VL: EIVLTQSPATLSVSPGERATISCRASESVDSYDINSMHWYQQKPGQAPRLLIYRASHLQSGIPARFSGSGSRTDFTLTISSVEPEDFATYYCQQSNEDPLTFGQGTKLEIK ? 2680

// same read-out, input: humanized 02A01-VH3-VK4 (antibody, human IgG1, V domains shown, human IgG1 format; also called 02-VH3-VK4) VH: EVQLVQSGAEVKKPGATLKISCKASGYTFTDFTMHWVQQAPGKGLEWIGLVNPNNGGNIYAEKFQGRATLTVDTSTSTAYMELSSLRSEDTSVYYCGRVPLYTSHGMDYWGQGTLVTVSS VL: EIVLTQSPATLSVSPGERATISCRASESVDSYDINSMHWYQQKPGQAPRLLIYDASNRATGIPARFSGSGSRTDFTLTISSVEPEDFATYYCQQSNEDPLTFGQGTKLEIK 1560
